experiment: Half-life (T1/2) in solution at stated pH (chemical stability); format: physicochemical; conditions: pH 2
compounds and their reported half-life
A number alone suffices; assume min.

// known answers, use as guide
CSCSC1=C(C(=O)O)N2C(=O)[C@H]([C@@H](C)O)[C@H]2[C@H]1C | 18.8
C[C@@H](O)[C@H]1C(=O)N2C(C(=O)O)=C(SCSc3cccnc3)[C@H](C)[C@H]12 | 35

Give recorded half-life. C[C@@H](O)[C@H]1C(=O)N2C(C(=O)O)=C(SCSc3cccnc3)C[C@H]12
2

Give recorded half-life. C[C@@H](O)[C@H]1C(=O)N2C(C(=O)O)=C(SCSc3ccncc3)[C@H](C)[C@H]12
34

Give recorded half-life. C[C@@H](O)[C@H]1C(=O)N2C(C(=O)O)=C(SCSc3ccccc3)[C@H](C)[C@H]12
18.8

Give recorded half-life. C[C@@H](O)[C@H]1C(=O)N2C(C(=O)O)=C(SCSc3ccccn3)[C@H](C)[C@H]12
36
